Assay: solvent given as SMILES
Settings: in ClCCl
Entries and their emission maximum values follow.
# number then unit; no other words

// worked examples, emission maximum included
compound=c1ccc(N(c2ccccc2)c2ccc(-c3nc4c5ccccc5c5ccccc5c4n3-c3ccccc3)cc2)cc1 readoutvalue="468 nm"
compound=COC(=O)CCC1=CC(C#Cc2ccsc2)=[N+]2C1=Cc1c(CCC(=O)OC)cc(C#Cc3ccsc3)n1[B-]2(F)F readoutvalue="653 nm"
compound=Clc1ccccc1N1c2c(sc3ccccc23)Sc2sc3ccccc3c21 readoutvalue="574 nm"
compound=Cc1cccc(-c2c3ccccc3cc3ccccc23)n1 readoutvalue="418 nm"
compound=COc1cc(OC)cc(C2=[O+][B-](F)(F)OC(c3ccc4cc(OC)ccc4c3)=C2)c1 readoutvalue="520 nm"

input: Reported emission maximum for CCOC(=O)c1ccc(C2CC(c3cccc4ccccc34)=NN2c2ccc(OC)cc2)cc1 (stereo not given) : what is it?
output: 505 nm

input: Reported emission maximum for COc1ccc2nc(/N=N/c3ccc(N(C)C)cc3)sc2c1 : what is it?
output: 572 nm

input: Reported emission maximum for [C-]#[N+]c1ccc(-c2ccc(N)cc2)cc1 : what is it?
output: 390 nm

input: Reported emission maximum for COc1ccc(-c2csc(/C(C#N)=N\Nc3ccc(C#N)cc3)n2)cc1 : what is it?
output: 527 nm

input: Reported emission maximum for CC1=C(I)C(C)=[N+]2C1=C(c1c(-c3ccccn3)nc3ccccn13)c1c(C)c(I)c(C)n1[B-]2(F)F : what is it?
output: 580 nm

---

Entries and their emission maximum values follow.
Assay: solvent given as SMILES
Conditions: in C1COCCO1
The response must be a number in nm with no trailing unit.

// worked examples, emission maximum included
molecule=CN(C)c1ccc(/C=C2\CC/C(=C\c3ccc(N(C)C)cc3)C2=O)cc1 readoutvalue=493
molecule=O=C1c2ccccc2C(=O)N1c1ccc(Cn2cncn2)cc1 readoutvalue=313
molecule=COc1ccc(-c2nc(N)nc(C#N)c2C#N)cc1OC readoutvalue=428
molecule=F[B-]1(F)n2c(nc(-c3ccccc3)c2-c2ccccc2)-c2cccc[n+]21 readoutvalue=510
molecule=Nc1ccc2c(C(F)(F)F)cc(=O)oc2c1 readoutvalue=442

input: Reported emission maximum for CC1(C)CC(=O)C2=C(C1)Oc1ccc3cc(O)ccc3c1C2c1ccccn1 (configuration not stated) : what is it?
output: 377

---

Test: solvent given as SMILES
Settings: in CCO
parameter: emission maximum (nm)
The response must be a number in nm with no trailing unit.

compound=Cc1c(OCC(=O)O)cc2c3c([nH]c2c1C)C(=O)CCC3 scaleunit=nm readoutvalue=461.12
compound=COc1ccc(-c2ccc(-c3ccc(C#N)s3)s2)cc1 scaleunit=nm readoutvalue=474
compound="CCCCC(CC)Cn1c2ccc(C(=C(C#N)C#N)c3ccccc3)cc2c2c(-c3ccc(Br)cc3)c3c(c(-c4ccc(Br)cc4)c21)c1cc(C(=C(C#N)C#N)c2ccccc2)ccc1n3CC(CC)CCCC (stereo not given)" scaleunit=nm readoutvalue=576

input: Reported emission maximum for CN1/C(=C/C=C(/C=C/C2=[N+](C)c3ccccc3C2(C)C)c2ccc(F)cc2)C(C)(C)c2ccccc21 : what is it?
output: 666

input: Reported emission maximum for Cc1nn(-c2ccccc2)c(C2=NN(c3ccc(Br)cc3)[C@@H](c3ccccc3)[C@@H]2c2ccccc2)c1C#N : what is it?
output: 493

---

Assay: solvent given as SMILES
Details: in CC1CCCCC1
parameter: emission maximum

// worked examples, emission maximum included
molecule=CC(C)(C)c1ccc2cc3c4cccc5cccc(c6cc(C(C)(C)C)cc(c2c1)c63)c54 parameter="emission maximum" readoutvalue="445 nm"
molecule=N#Cc1cc(-c2ccc(F)cc2)cnc1O parameter="emission maximum" readoutvalue="425 nm"
molecule="COC(=O)C(NC(=O)OC(C)(C)C)c1ccc2oc(-c3cccc(Oc4ccccc4)c3)nc2c1 (stereo unspecified)" parameter="emission maximum" readoutvalue="325 nm"
molecule=Nc1ccc2c(C(F)(F)F)cc(=O)oc2c1 parameter="emission maximum" readoutvalue="401 nm"
molecule="COC(=O)C(NC(=O)OC(C)(C)C)c1ccc2oc(-c3ccc(C#N)cc3)nc2c1 (stereo unspecified)" parameter="emission maximum" readoutvalue="342 nm"

input: Reported emission maximum for COC(=O)C(Cc1ccc2oc(-c3ccc(N(c4ccccc4)c4ccccc4)cc3)nc2c1)NC(=O)OC(C)(C)C (stereo unspecified) : what is it?
output: 395 nm

---

Assay: solvent given as SMILES
Conditions: in CC(C)(C)O
parameter: emission maximum (nm)
The response must be a number in nm with no trailing unit.

// worked examples, emission maximum included
compound=COCCOCCOc1cc(C=O)c(OCCOCCOC)cc1C=O parameter="emission maximum" scaleunit=nm readoutvalue=478
compound="COC(=O)C(Cc1ccc2oc(-c3ccc(-n4c5ccccc5c5ccccc54)cc3)nc2c1)NC(=O)OC(C)(C)C (stereo not given)" parameter="emission maximum" scaleunit=nm readoutvalue=421
compound=O=C1Nc2ccccc2/C1=C/C(=O)c1ccccc1 parameter="emission maximum" scaleunit=nm readoutvalue=407
compound=COCCOCCOc1ccc(OCCOCCOC)c(C=O)c1 parameter="emission maximum" scaleunit=nm readoutvalue=444

Now consider a different compound.
input: Reported emission maximum for Nc1ccc2c(c1)C(=O)NC2=O : what is it?
output: 501

---

Entries and their emission maximum values follow.
Assay: solvent given as SMILES
Details: in O
The response must be a number in nm with no trailing unit.

input: Reported emission maximum for O=C(O)COc1ccc2[nH]c3c(c2c1)CCCC3=O : what is it?
output: 507.69

input: Reported emission maximum for O=C1Nc2ccccc2/C1=C/C(=O)c1ccccc1 : what is it?
output: 424

input: Reported emission maximum for Oc1c(-c2ccco2)cccc1-c1nc2ccccc2s1 : what is it?
output: 569

input: Reported emission maximum for CCN(CC)c1ccc2c(-c3ccccc3C(=O)[O-])c3ccc(=[N+](CC)CC)cc-3oc2c1 : what is it?
output: 580

input: Reported emission maximum for C/C=C/C1=NC(=C\c2ccc(O)cc2)/C(=O)N1C : what is it?
output: 460

input: Reported emission maximum for [C-]#[N+]c1ccc(-c2ccc(N)cc2)cc1 : what is it?
output: 457

input: Reported emission maximum for CC[N+](CC)=c1ccc2c(-c3ccccc3C(=O)O)c3oc4cc(N)ccc4c3oc-2c1 : what is it?
output: 634

input: Reported emission maximum for COCCOCCOc1cc(C=O)c(OCCOCCOC)cc1C=O : what is it?
output: 496

input: Reported emission maximum for CC[N+]1(CC)CN2C(=N1)C(C(=O)O)=Cc1cc(C)c(C)cc12 : what is it?
output: 466

input: Reported emission maximum for CN(C)c1ccc2c(-c3cc(C(=O)[O-])ccc3C(=O)[O-])c3ccc(=[N+](C)C)cc-3oc2c1 : what is it?
output: 575

input: Reported emission maximum for O=S(=O)(/N=c1\oc2cccc3c4c(-c5ccccc5)oc5cccc(c(c1-c1ccccc1)c23)c54)C(F)(F)F : what is it?
output: 601

input: Reported emission maximum for O=C(O)C1=C/C(=C/C=[N+]2/c3cc(O)c(C[C@@H]4O[C@H](CO)[C@@H](O)C(O)[C@H]4O)cc3C[C@H]2C(=O)O)C[C@@H](C(=O)O)N1 (stereo not given in full) : what is it?
output: 640

input: Reported emission maximum for O=c1oc2ccc(Cl)cc2cc1-c1cc2cc(Cl)ccc2o1 : what is it?
output: 473

input: Reported emission maximum for O=Cc1ccc(-c2ccc(-c3nc4ccccc4s3)c(O)c2)s1 : what is it?
output: 557

input: Reported emission maximum for CC1(C)C(/C=C/C=C/C=C/C=C2/N(CCCCCC(=O)O)c3ccc(S(=O)(=O)[O-])cc3C2(C)C)=[N+](CCCCCC(=O)O)c2ccc(S(=O)(=O)[O-])cc21 : what is it?
output: 771

input: Reported emission maximum for N#Cc1ccc2[nH]ccc2c1 : what is it?
output: 390

input: Reported emission maximum for Clc1ccc2cc3cccc[n+]3cc2c1 : what is it?
output: 408

input: Reported emission maximum for Oc1ccc(-c2ccco2)cc1-c1nc2ccccc2s1 : what is it?
output: 577

input: Reported emission maximum for [NH3+]c1ccc2c(c1)Cc1ccccc1-2 : what is it?
output: 314

input: Reported emission maximum for CC1(C)C(/C=C/C=C/C=C/C=C2/N(CCCCCC(=O)O)c3ccc(S(=O)(=O)[O-])cc3C2(C)C)=[N+](CCCCS(=O)(=O)[O-])c2ccc(S(=O)(=O)[O-])cc21 : what is it?
output: 771

---

Assay: solvent given as SMILES
Conditions: in ClCCl
# emission maximum >= 500 nm gives 1, anything below gives 0

input: Exam item: decide whether the reported emission maximum for COc1cc2c(cc1OC)C1=C[C@H](c3ccccc3)C3(C(C#N)=C(C#N)N1CC2)c1cc(Cl)ccc1-c1ccc(Cl)cc13 is at least 500 nm.
output: 0

input: Exam item: decide whether the reported emission maximum for CC1(C)c2ccccc2-c2cc3c(cc21)c1ccccc1n3-c1ccncc1 is at least 500 nm.
output: 0

input: Exam item: decide whether the reported emission maximum for CC(C)(C)c1ccc2c3c(c4ccc(C(C)(C)C)cc4c2c1)=[N+]1C(=C(c2ccccc2)c2c(Br)c4c5ccc(C(C)(C)C)cc5c5cc(C(C)(C)C)ccc5c4n2[B-]1(F)F)C=3Br is at least 500 nm.
output: 1

input: Exam item: decide whether the reported emission maximum for CCCCCCCCCCCCN(CCCCCCCCCCCC)c1ccc2c(c1)oc(=O)c1c(=O)oc3ccccc3c12 is at least 500 nm.
output: 1

input: Exam item: decide whether the reported emission maximum for Cc1cc(C(F)(F)F)nc2c1ccc1nc(-c3ccc(Cl)cc3)cn12 is at least 500 nm.
output: 0

input: Exam item: decide whether the reported emission maximum for Cc1ccccc1-c1c2ccc(=[N+]3CCCC3)cc-2oc2cc(N3CCCC3)ccc12 is at least 500 nm.
output: 1

input: Exam item: decide whether the reported emission maximum for CCOC(=O)c1c(-c2cc3ccccc3oc2=O)nn(-c2ccc(C)c(C)c2)c1C(=O)OCC is at least 500 nm.
output: 0

input: Exam item: decide whether the reported emission maximum for CC(=O)c1nc(-c2ccc(N(c3ccccc3)c3ccccc3)cc2)oc1C is at least 500 nm.
output: 0
